- test.name: Inhibition of HIV-1 integrase strand transfer activity assessed as reduction in viral replication in presence of 10% fetal bovine serum
quantity: EC50 (nM)

Worked examples, 4 compounds total:
| structure.smiles.string | unit.string | EC50 |
| --- | --- | --- |
| Cc1cc(CNC(=O)c2nc3n(c(=O)c2O)CCCC32CCCC2)ccc1F | nM | 5 |
| CC1(C)OCCn2c1nc(C(=O)NCc1ccc(F)cc1N1CCCCS1(=O)=O)c(O)c2=O | nM | 2 |
| O=C(NCc1ccc(F)cc1N1CCCCS1(=O)=O)c1nc2n(c(=O)c1O)CCCC21CCCC1 | nM | 2 |
| CC1(C)OCCn2c1nc(C(=O)NCc1ccc(F)c(Cl)c1)c(O)c2=O | nM | 2 |

1: CS(=O)(=O)c1cc(F)ccc1CNC(=O)c1nc2n(c(=O)c1O)CCCC21CCCC1
2: CN(C)S(=O)(=O)c1cc(F)ccc1CNC(=O)c1nc2n(c(=O)c1O)CCCC21CCCC1
[ask] Form field 'greater EC50' accepts 1 or 2 ; which applies? Selection: enter the item's label.
[reply] 2
(2: 3 nM, 1: 1 nM)

P: O=C(NCc1ccc(F)cc1S(=O)(=O)N1CCOCC1)c1nc2n(c(=O)c1O)CCCC21CCCC1
Q: Cc1cc(CNC(=O)c2nc3n(c(=O)c2O)CCOC3(C)C)ccc1F
[ask] Between item P and item Q , which reported EC50 is smaller? Selection: enter the item's label.
[reply] Q
(Q: 1 nM, P: 3 nM)

a: CC1(C)OCCn2c1nc(C(=O)NCc1ccc(F)cc1Cl)c(O)c2=O
b: CC1(C)OCCn2c1nc(C(=O)NCc1ccc(F)cc1S(C)(=O)=O)c(O)c2=O
[ask] Form field 'greater EC50' accepts a or b ; which applies? Selection: enter the item's label.
[reply] a
